# maps each entry to its % inhibition, VEGF HUVEC Erk phosphorylation assay
Test target: VEGF (used to stimulate HUVEC cells) (UniProt P15692-4 27-191, limits assumed)
Sequence (P15692 other isoform, or with tags, fused parts or gaps limits assumed): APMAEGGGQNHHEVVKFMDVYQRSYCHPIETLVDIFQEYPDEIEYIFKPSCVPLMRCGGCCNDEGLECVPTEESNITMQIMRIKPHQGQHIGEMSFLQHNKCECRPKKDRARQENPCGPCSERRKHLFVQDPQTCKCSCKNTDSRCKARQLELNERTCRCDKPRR
Method summary: cell-based or functional assay
Answer in %, number only, no unit symbol.

* VEGFBII021 (VHH, not shown: small tags and cut ends, Bivalent (heterodimeric) anti-VEGF VHH; also called VEGFBII23B04-40GS-5B05) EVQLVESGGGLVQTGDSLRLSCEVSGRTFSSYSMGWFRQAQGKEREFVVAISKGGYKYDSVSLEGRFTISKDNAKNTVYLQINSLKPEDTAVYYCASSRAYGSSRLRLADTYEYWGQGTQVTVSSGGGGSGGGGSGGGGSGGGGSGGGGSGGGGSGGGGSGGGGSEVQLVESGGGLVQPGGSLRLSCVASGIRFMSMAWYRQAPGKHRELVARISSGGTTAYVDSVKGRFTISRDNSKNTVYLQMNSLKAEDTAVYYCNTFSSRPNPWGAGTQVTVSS | 103
* VEGFBII024 (VHH, not shown: small tags and cut ends, Bivalent anti-VEGF VHH; also called VEGFBII23B04-40GS-86H09) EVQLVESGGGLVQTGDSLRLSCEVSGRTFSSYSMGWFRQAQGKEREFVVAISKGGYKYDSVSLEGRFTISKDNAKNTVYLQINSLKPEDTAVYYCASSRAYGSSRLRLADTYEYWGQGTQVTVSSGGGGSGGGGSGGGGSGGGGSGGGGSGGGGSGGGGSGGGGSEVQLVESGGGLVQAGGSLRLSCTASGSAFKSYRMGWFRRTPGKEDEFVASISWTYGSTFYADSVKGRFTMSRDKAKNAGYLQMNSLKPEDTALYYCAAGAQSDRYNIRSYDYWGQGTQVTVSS | 94
* VEGFBII022 (VHH, not shown: small tags and cut ends, Bivalent (heterodimeric) anti-VEGF VHH; also called VEGFBII23B04-9GS-5B05) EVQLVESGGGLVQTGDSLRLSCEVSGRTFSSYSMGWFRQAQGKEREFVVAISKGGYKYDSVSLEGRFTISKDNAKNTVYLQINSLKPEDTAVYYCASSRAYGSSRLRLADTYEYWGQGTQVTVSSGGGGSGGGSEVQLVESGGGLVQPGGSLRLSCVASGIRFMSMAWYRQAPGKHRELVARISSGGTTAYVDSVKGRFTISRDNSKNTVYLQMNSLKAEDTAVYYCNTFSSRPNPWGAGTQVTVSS | 94

Now let's try a different one.
Which % inhibition, VEGF HUVEC Erk phosphorylation assay value is on record for VEGFBII010 (VHH, not shown: small tags and cut ends, Homodimeric bivalent anti-VEGF VHH; also called VEGFBII23B04-35GS-23B04) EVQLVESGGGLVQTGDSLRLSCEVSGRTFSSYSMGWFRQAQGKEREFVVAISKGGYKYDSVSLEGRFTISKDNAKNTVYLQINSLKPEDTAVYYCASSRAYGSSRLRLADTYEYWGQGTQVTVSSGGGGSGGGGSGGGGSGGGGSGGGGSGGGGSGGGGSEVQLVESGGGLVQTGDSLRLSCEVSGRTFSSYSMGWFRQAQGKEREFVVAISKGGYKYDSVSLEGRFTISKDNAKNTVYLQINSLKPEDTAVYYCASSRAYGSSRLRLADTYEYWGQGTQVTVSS ?
92

Provenance of the data: patent US20140120095A1
